# Test system: SNK-6 (IL-2 2.5 ng/mL)
# Assay protocol: percent inhibition of viability; higher = more inhibition
# Conditions used: 72 h; 10000 nM
Readings of percent inhibition of viability for the listed compounds
Readout type: percent inhibition of viability (%)

>>> reported_value("N[C@@H]1CCCN(c2c(/C=C3\\SC(=O)NC3=O)cccc2-c2ccccc2)C1 [AZD1208] (max concentration tested 10000 nM)")
12
>>> reported_value("Nc1cccc2c1CN(C1CCC(=O)NC1=O)C2=O (centres undefined) [Lenalidomide] (max concentration tested 100000 nM)")
40.7
>>> reported_value("CN1CCN(CCOc2cc(OC3CCOCC3)c3c(Nc4c(Cl)ccc5c4OCO5)ncnc3c2)CC1 [Saracatinib] (max concentration tested 10000 nM)")
21.7
>>> reported_value("CN(C)/N=N/c1[nH]cnc1C(N)=O [Dacarbazine] (max concentration tested 10000 nM)")
22.6

---

# Test system: normal primary NK cells, pool 1 (3 donors), resting (IL-2 0 ng/mL)
# Assay protocol: relative IC50 (inflection point of fitted viability curve, relative to fitted max inhibition); higher = less sensitive
# Conditions used: 72 h
Readout type: relative IC50

>>> reported_value("C/C(=C\\c1csc(C)n1)[C@@H]1C[C@@H]2O[C@]2(C)CCC[C@H](C)[C@H](O)[C@@H](C)C(=O)C(C)(C)[C@@H](O)CC(=O)N1 [Ixabepilone]")
"> 1000 nM"
>>> reported_value("CN(C)Cc1ccc(S(=O)(=O)n2ccc(/C=C/C(=O)NO)c2)cc1")
"268 nM"
>>> reported_value("O=C1c2c(O)ccc(O)c2C(=O)c2c(NCCNCCO)ccc(NCCNCCO)c21")
"151 nM"
>>> reported_value("CNC(=O)c1nn(C)c2c1C(C)(C)Cc1cnc(Nc3ccc(N4CCN(C)CC4)cc3)nc1-2")
"449 nM"
>>> reported_value("Nc1cccc2c1C(=O)N(C1CCC(=O)NC1=O)C2=O (stereo not drawn) [Pomalidomide]")
"> 10000 nM"
>>> reported_value("O=C(NC1CCNCC1)c1n[nH]cc1NC(=O)c1c(Cl)cccc1Cl")
"400 nM"
>>> reported_value("CO[C@@]12[C@H](COC(N)=O)C3=C(C(=O)C(C)=C(N)C3=O)N1C[C@@H]1N[C@@H]12")
"1630 nM"
>>> reported_value("CC(=O)[C@]1(O)Cc2c(O)c3c(c(O)c2[C@@H](O[C@H]2C[C@H](N)[C@H](O)[C@H](C)O2)C1)C(=O)c1ccccc1C3=O")
"3.38 nM"

---

# Test system: normal primary NK cells, pool 2 (3 donors) (IL-2 2.5 ng/mL)
# Assay protocol: drug sensitivity score (DSS) (DSS units); higher = more sensitive; extreme values may be limits of the assay
# Conditions used: 72 h
Readout type: drug sensitivity score

>>> reported_value("COc1ccc(-c2nc(N3CCOCC3)c3sc(CN(C)c4ncc(C(=O)NO)cn4)cc3n2)cn1 [CUDC-907] (max concentration tested 10000 nM)")
37.7
>>> reported_value("O=C(c1cc(Cc2n[nH]c(=O)c3ccccc23)ccc1F)N1CCN(C(=O)C2CC2)CC1 [Olaparib] (max concentration tested 10000 nM)")
0.48
>>> reported_value("CN(C[C@@H]1COCCO1)S(=O)(=O)Nc1ccc2ccc3ncc(-c4cnn(C)c4)cc3c(=O)c2c1 [MK-2461] (max concentration tested 10000 nM)")
0.24

---

Readings of relative IC50 for the listed compounds
# Tested on: normal primary NK cells, pool 2 (3 donors) (IL-2 2.5 ng/mL)
# Assay protocol: relative IC50 (inflection point of fitted viability curve, relative to fitted max inhibition); higher = less sensitive
# Conditions used: 72 h
Readout type: relative IC50 (nM)

>>> reported_value("O=C(O)c1ccc2c(c1)nc(Nc1cccc(Cl)c1)c1ccncc12")
2230
>>> reported_value("CNC(=O)c1nn(C)c2c1C(C)(C)Cc1cnc(Nc3ccc(N4CCN(C)CC4)cc3)nc1-2")
775
>>> reported_value("Cc1nc(N)sc1-c1ccnc(Nc2ccc(N3CCOCC3)cc2)n1")
1600
>>> reported_value("CCOc1cc2ncc(C#N)c(Nc3ccc(F)c(Cl)c3)c2cc1NC(=O)/C=C/CN(C)C")
260
>>> reported_value("CN(C)C[C@@H]1CCn2cc(c3ccccc32)C2=C(C(=O)NC2=O)c2cn(c3ccccc23)CCO1")
2110
>>> reported_value("CO[C@@]12[C@H](COC(N)=O)C3=C(C(=O)C(C)=C(N)C3=O)N1C[C@@H]1N[C@@H]12")
1010

---

# System: normal primary NK cells, pool 3 (3 donors) (IL-2 2.5 ng/mL)
# Assay protocol: percent inhibition of viability; higher = more inhibition
# Conditions used: 72 h; 10 nM
Readings of percent inhibition of viability for the listed compounds
Readout type: percent inhibition of viability (%)

>>> reported_value("COc1ccc(COc2cc3oc(=O)c4cc(C(C)O)ccc4c3cc2OC)cc1 (stereo not given) [Palomid-529] (max concentration tested 10000 nM)")
-4.43
>>> reported_value("Nc1ccn([C@@H]2O[C@H](CO)[C@@H](O)C2(F)F)c(=O)n1 [Gemcitabine] (max concentration tested 1000 nM)")
16.8
>>> reported_value("CCc1cc(Nc2nccc(-c3c(-c4ccc(OC)c(C(=O)Nc5c(F)cccc5F)c4)nc4ccccn34)n2)c(OC)cc1N1CCC(N2CCN(S(C)(=O)=O)CC2)CC1 (max concentration tested 10000 nM)")
1.94
>>> reported_value("COc1cc2c(N3CCN(C(=O)Nc4ccc(OC(C)C)cc4)CC3)ncnc2cc1OCCCN1CCCCC1 [Tandutinib] (max concentration tested 1000 nM)")
-1.84
>>> reported_value("CC(O)(CS(=O)(=O)c1ccc(F)cc1)C(=O)Nc1ccc(C#N)c(C(F)(F)F)c1 (stereo not given) [Bicalutamide] (max concentration tested 10000 nM)")
-2.54
>>> reported_value("O=c1ncn2nc(Sc3ccc(F)cc3F)ccc2c1-c1c(Cl)cccc1Cl [VX 745] (max concentration tested 10000 nM)")
-5.79
>>> reported_value("CCc1c(C(=O)C(N)=O)c2c(OCC(=O)O)cccc2n1Cc1ccccc1 [Varespladib] (max concentration tested 10000 nM)")
-9.39
>>> reported_value("N[C@@H]1CCCN(c2c(/C=C3\\SC(=O)NC3=O)cccc2-c2ccccc2)C1 [AZD1208] (max concentration tested 10000 nM)")
-6.59
>>> reported_value("O=NN(CCCl)C(=O)NC1CCCCC1 [Lomustine] (max concentration tested 10000 nM)")
-8.98
>>> reported_value("CON(C)C(=O)N1N=C(c2cc(F)ccc2F)S[C@@]1(CCCN)c1ccccc1 [Filanesib] (max concentration tested 1000 nM)")
1.29

---

Readings of percent inhibition of viability for the listed compounds
# Test system: KHYG-1 (IL-2 2.5 ng/mL)
# Assay protocol: percent inhibition of viability; higher = more inhibition
# Conditions used: 72 h; 10 nM
Readout type: percent inhibition of viability (%)

>>> reported_value("O=C(CCBr)N1CCN(C(=O)CCBr)CC1 [Pipobroman] (max concentration tested 10000 nM)")
-13.9
>>> reported_value("Cc1cc(Nc2cc(N3CCN(C)CC3)nc(Sc3ccc(NC(=O)C4CC4)cc3)n2)n[nH]1 [Tozasertib] (max concentration tested 10000 nM)")
2.48
>>> reported_value("CN1CCN(CCOc2cc(OC3CCOCC3)c3c(Nc4c(Cl)ccc5c4OCO5)ncnc3c2)CC1 [Saracatinib] (max concentration tested 10000 nM)")
-8
>>> reported_value("O=C(O)c1ccc2c(c1)nc(Nc1cccc(Cl)c1)c1ccncc12 [Silmitasertib] (max concentration tested 10000 nM)")
3.89
>>> reported_value("CC(=O)Nc1ccc(C(=O)Nc2ccccc2N)cc1 [Tacedinaline] (max concentration tested 1000 nM)")
-3.24
>>> reported_value("COc1ccc(COc2cc3oc(=O)c4cc(C(C)O)ccc4c3cc2OC)cc1 (stereo unspecified) [Palomid-529] (max concentration tested 10000 nM)")
-4.29

---

# Tested on: SNK-6 (IL-2 2.5 ng/mL)
# Assay protocol: percent inhibition of viability; higher = more inhibition
# Conditions used: 72 h; 1 nM
Readout type: percent inhibition of viability (%)

>>> reported_value("C[C@]12C=CC(=O)C=C1CC[C@@H]1[C@@H]2C(=O)C[C@@]2(C)[C@H]1CC[C@]2(O)C(=O)CO [Prednisone] (max concentration tested 10000 nM)")
-5.48
>>> reported_value("COc1ccc(-c2ccc3ncc4c(c3c2)n(-c2ccc(N3CCNCC3)c(C(F)(F)F)c2)c(=O)n4C)cn1 [NVP-BGT226] (max concentration tested 1000 nM)")
4.85
>>> reported_value("CO[C@H]1C[C@@H]2CC[C@@H](C)[C@@](O)(O2)C(=O)C(=O)N2CCCC[C@H]2C(=O)O[C@H]([C@H](C)C[C@@H]2CC[C@@H](O)[C@H](OC)C2)CC(=O)[C@H](C)/C=C(\\C)[C@@H](O)[C@@H](OC)C(=O)[C@H](C)C[C@H](C)/C=C/C=C/C=C/1C [Sirolimus] (max concentration tested 100 nM)")
26.8

Sourced from the supplement of paper PMC5908809
